These data points were gathered from ChEMBL document CHEMBL1961873.

# Tested System: Tyrosine-protein kinase JAK3 (Homo sapiens)
# Measurement Setup: at 1 µM
# Description: GSK_PKIS: JAK3 mean inhibition at 1 uM [Nanosyn]
Endpoint Label: inhibition

Hey, can you go through the list below and give me inhibition for every item?
1. COc1cccc(Nc2nccc(-c3cnn4ncccc34)n2)c1
2. CS(=O)(=O)CCNCc1ccc(-c2ccc3ncnc(Nc4ccc(OCc5ccccc5)cc4)c3c2)o1
3. CNC(=O)c1cncc(/C=C/c2ccccc2C)c1
4. CS(=O)(=O)CCNCc1ccc(-c2ccc3ncnc(Nc4ccc(OCc5cccc(C(F)(F)F)c5)cc4)c3c2)o1

1: 44.2%; 2: -1.45%; 3: 0.49%; 4: 0.32%

====

# Tested System: Fibroblast growth factor receptor 1 (Homo sapiens) (UniProt P11362);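 further: values are the mean percent inhibition of FGFR1 across replicate measurements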
# Sequence (P11362 22-822 limits assumed): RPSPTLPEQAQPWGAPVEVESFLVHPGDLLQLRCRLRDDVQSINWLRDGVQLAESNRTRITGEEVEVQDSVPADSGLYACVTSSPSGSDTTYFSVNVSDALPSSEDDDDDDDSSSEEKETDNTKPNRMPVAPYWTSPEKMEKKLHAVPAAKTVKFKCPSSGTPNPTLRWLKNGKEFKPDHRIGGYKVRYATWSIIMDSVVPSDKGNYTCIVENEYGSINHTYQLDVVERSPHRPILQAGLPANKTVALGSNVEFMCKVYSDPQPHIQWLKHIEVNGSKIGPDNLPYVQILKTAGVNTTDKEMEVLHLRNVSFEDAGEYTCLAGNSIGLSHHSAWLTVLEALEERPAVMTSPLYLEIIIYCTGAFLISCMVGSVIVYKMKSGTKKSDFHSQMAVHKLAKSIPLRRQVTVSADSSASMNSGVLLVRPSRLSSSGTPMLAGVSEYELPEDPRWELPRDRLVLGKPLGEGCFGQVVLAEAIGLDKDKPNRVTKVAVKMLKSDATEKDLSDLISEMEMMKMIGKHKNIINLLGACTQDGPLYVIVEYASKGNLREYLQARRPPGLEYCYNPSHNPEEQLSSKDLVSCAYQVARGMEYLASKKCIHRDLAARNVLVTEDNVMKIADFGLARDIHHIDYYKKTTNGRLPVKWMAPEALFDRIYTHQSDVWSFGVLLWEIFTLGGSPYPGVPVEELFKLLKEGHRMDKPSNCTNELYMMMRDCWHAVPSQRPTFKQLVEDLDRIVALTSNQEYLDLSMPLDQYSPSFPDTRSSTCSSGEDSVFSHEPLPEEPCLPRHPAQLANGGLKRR
# Measurement Setup: at 1 µM
Endpoint Label: inhibition (%)
Give bare numbers, in %.

COc1cccc(-n2ncc3c(N/N=C/c4ccc(C(=O)NCCN(C)C)cc4)ncnc32)c1 ... 9.7
O=C(O[C@H]1CN[C@H](C#Cc2cc3ncnc(Nc4ccc(OCc5cccc(F)c5)c(Cl)c4)c3s2)C1)N1CCOCC1 ... 3.49
CN(C)CCNC(=O)Nc1ccc(N(C)c2ccnc(Nc3ccc(CS(C)(=O)=O)cc3)n2)cc1 ... 9.1

Kindly indicate its recorded inhibition. Item: CNC(=O)c1cncc(/C=C/c2ccccc2C)c1
3.14

====

# Tested System: Hepatocyte growth factor receptor (Homo sapiens);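 further: each value is an averaged inhibition figure for MET, taken as the mean across measurements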
# Measurement Setup: at 1 µM
Provide the reported inhibition of each item.
Numbers only, in %.

Take a look at these entries with their results.
CS(=O)(=O)CCNCc1ccc(-c2ccc3ncnc(Nc4ccc(OCc5ccccc5)cc4)c3c2)o1 ... 4.43
Cc1cc(O)cc(C)c1/C=C/c1cncc(C(=O)OC(C)(C)C)c1 ... 5.5
CS(=O)(=O)Nc1ccc(-c2cc(-c3ccccc3)cc(C(N)=O)c2N)cc1 ... 2.34
CNC(=O)c1sc(-n2cnc3cc(OC)c(OC)cc32)cc1OCc1ccccc1C(F)(F)F ... 3.89
c1cnn2ncc(-c3ccnc(NCCCN4CCOCC4)n3)c2c1 ... 0.15

Hey, can you go through the list below and give me inhibition for every item?
1. CNC(=O)c1ncccc1Nc1nc(Nc2cc3c(cc2OC)CCCN3C(=O)CN(C)C)nc2[nH]ccc12
2. COC(=O)Nc1nc2ccc(Oc3ccc(NC(=O)Nc4cc(C(F)(F)F)ccc4F)cc3)cc2s1
3. Cc1c2ccc(N(C)c3ccnc(Nc4cccc(S(N)(=O)=O)c4)n3)cc2nn1C
4. O=C1Nc2ccccc2/C1=C1\CCc2cc(O)ccc21
5. COc1cc(N2CCN(C(C)C)CC2)ccc1Nc1nc(Nc2cccc(F)c2C(=O)O)c2cc[nH]c2n1
6. CNC(=O)c1cncc(/C=C/c2ccccc2C)c1
7. Cn1c(-c2nonc2N)nc2cnccc21
8. CC1=C(C(=O)Nc2ccc3[nH]nc(C)c3c2)C(c2ccc(C(F)(F)F)cc2)CC(=O)N1 (stereo not drawn)

1. 10.1
2. 34.6
3. 28.1
4. 10.1
5. 1.52
6. 5.5
7. 3.65
8. 17.3

====

Provide the reported inhibition of each item.
# Tested System: Activated CDC42 kinase 1 (Homo sapiens) (UniProt Q07912)
# Sequence (Q07912 whole entry, looked up): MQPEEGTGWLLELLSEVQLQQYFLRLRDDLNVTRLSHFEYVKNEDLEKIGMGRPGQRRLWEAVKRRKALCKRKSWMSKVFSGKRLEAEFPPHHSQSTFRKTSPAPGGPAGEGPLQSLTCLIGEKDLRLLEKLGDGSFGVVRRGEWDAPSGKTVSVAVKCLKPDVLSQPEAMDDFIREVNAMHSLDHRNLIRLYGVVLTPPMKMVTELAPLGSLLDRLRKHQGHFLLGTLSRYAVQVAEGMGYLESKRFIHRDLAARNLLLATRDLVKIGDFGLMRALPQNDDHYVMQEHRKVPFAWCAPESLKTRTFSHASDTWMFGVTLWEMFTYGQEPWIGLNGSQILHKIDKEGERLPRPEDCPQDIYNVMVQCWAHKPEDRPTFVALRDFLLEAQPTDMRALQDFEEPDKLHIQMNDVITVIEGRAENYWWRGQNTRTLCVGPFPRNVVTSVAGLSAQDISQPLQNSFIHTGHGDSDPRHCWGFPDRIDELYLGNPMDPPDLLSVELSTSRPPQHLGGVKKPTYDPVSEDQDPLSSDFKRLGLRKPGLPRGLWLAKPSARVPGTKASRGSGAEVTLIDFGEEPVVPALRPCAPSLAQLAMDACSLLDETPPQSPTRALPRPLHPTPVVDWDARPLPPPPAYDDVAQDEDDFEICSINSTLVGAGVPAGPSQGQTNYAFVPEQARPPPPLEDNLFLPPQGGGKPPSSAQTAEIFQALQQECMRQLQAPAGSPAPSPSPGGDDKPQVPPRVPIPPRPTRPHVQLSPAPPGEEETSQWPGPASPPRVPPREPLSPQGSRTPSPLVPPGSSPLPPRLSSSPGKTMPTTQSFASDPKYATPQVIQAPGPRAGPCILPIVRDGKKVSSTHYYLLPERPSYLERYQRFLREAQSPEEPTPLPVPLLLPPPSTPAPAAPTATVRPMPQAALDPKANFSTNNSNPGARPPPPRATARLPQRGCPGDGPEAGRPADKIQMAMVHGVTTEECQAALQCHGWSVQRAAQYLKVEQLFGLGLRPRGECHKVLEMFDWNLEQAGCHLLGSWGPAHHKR
# Measurement Setup: at 1 µM
# Description: GSK_PKIS: TNK2 mean inhibition at 1 uM [Nanosyn]
Answers are plain numbers, in %.

CC1(C)CC(n2cnc(-c3ccc(F)cc3)c2-c2ccnc(N)n2)CC(C)(C)N1 ... 0.43
COc1cc(Nc2ncc(-c3ccccc3)o2)cc(OC)c1 ... 3.07
CC1=C(C(=O)Nc2ccc3[nH]nc(C)c3c2)C(c2ccc(C(F)(F)F)cc2)CC(=O)N1 (stereo unspecified) ... 27.4
COc1cccc(-n2ncc3c(N/N=C/c4ccc(C(=O)NCCN(C)C)cc4)ncnc32)c1 ... 13.2
COc1c(C(N)=O)cc(-c2ccc(Cl)cc2)cc1-c1ccc(S(N)(=O)=O)cc1 ... 3.03

Now, please, on to the next molecule.
Supply inhibition measured with Activated CDC42 kinase 1 (Homo sapiens) (UniProt Q07912) for COC(=O)Nc1nc2cc(Oc3ccc(NC(=O)Nc4ccccc4)cc3)ccc2[nH]1 .
1.18

====

Provide the reported inhibition of each item.
# Tested System: 5'-AMP-activated protein kinase catalytic subunit alpha-2 (Homo sapiens) (UniProt P54646)
# Sequence (P54646 whole entry, looked up): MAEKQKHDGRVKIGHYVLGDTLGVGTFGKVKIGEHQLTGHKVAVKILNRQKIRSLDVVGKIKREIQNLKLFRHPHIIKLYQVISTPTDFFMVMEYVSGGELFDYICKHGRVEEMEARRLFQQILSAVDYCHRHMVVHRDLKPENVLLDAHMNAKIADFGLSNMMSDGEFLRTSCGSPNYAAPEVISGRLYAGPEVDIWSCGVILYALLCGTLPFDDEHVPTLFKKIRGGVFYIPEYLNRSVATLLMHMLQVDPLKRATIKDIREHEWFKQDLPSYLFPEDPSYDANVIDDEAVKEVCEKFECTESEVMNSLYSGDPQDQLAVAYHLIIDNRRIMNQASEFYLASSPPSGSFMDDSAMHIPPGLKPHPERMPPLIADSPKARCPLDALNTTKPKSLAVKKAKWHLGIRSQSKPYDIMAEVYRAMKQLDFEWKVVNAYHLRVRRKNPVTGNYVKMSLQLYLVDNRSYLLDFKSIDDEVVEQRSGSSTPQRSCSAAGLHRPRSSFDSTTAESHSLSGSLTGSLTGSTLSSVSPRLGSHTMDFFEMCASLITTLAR
# Measurement Setup: at 1 µM
# Description: GSK_PKIS: AMPKA2 (A2B1G1) mean inhibition at 1 uM [Nanosyn]
Give bare numbers, in %.

Take a look at these entries with their results.
NS(=O)(=O)c1cccc(N/C=C2\C(=O)Nc3ccccc32)c1 ... 11.2
COc1cc2c(cc1Nc1nc(Nc3cccc(F)c3C(N)=O)c3cc[nH]c3n1)N(C(=O)CN1CCN(C(C)C)CC1)CC2 ... 3.18
O=C(Nc1n[nH]c2nnc(-c3cccnc3)cc12)C1CC1 ... 0.41
CCN1CCC(C(=O)Nc2n[nH]c3nnc(-c4cccc(F)c4F)cc23)CC1 ... 3.06
COc1cc(Nc2ncc(-c3ccccc3)o2)cc(OC)c1 ... 8.23
N#Cc1ccc2c(-c3ccnc(NC4CC4)n3)c(-c3ccc(F)cc3)nn2c1 ... 1.42
O=C(O[C@H]1CN[C@H](C#Cc2cc3ncnc(Nc4ccc5c(ccn5Cc5cc(F)ccc5F)c4)c3s2)C1)N1CCOCC1 ... 3.87
Fc1ccc(Nc2nccc(-c3c(-c4ccc(C(F)(F)F)cc4)nn4ncccc34)n2)cc1F ... 3.75
COc1c(C(N)=O)cc(-c2ccc(Cl)cc2)cc1-c1ccc(S(N)(=O)=O)cc1 ... 3.24

Now, please, on to the next compound.
Kindly indicate its recorded inhibition. Item: CS(=O)(=O)CCNCc1ccc(-c2ccc3ncnc(Nc4ccc(OCc5cccc(C(F)(F)F)c5)cc4)c3c2)o1
3.3

====

# Tested System: Serine/threonine-protein kinase MRCK beta (Homo sapiens);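 further: averaged inhibition values against MRCK beta, part of the GSK PKIS profiling dataset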
# Measurement Setup: at 1 µM
Endpoint Label: inhibition
Kindly format the answer as number then unit.

Take a look at these entries with their results.
CN(C)CCNC(=O)Nc1ccc(N(C)c2ccnc(Nc3ccc(CS(C)(=O)=O)cc3)n2)cc1 ... 2.25%
CC1(C)CC(n2cnc(-c3ccc(F)cc3)c2-c2ccnc(N)n2)CC(C)(C)N1 ... 1.72%

Hey, can you go through the list below and give me inhibition for every item?
1. O=C(O[C@H]1CN[C@H](C#Cc2cc3ncnc(Nc4ccc5c(cnn5Cc5ccccc5)c4)c3s2)C1)N1CCOCC1
2. Cc1cc(O)cc(C)c1/C=C/c1cncc(C(=O)OC(C)(C)C)c1
3. Cc1cc(O)cc(C)c1/C=C/c1cncc(C(N)=O)c1

1. -2.08%
2. 2.65%
3. 1.02%

Kindly indicate its recorded inhibition. Item: NS(=O)(=O)c1cccc(N/C=C2\C(=O)Nc3ccccc32)c1
2.14%

====

# Tested System: Serine/threonine-protein kinase Sgk3 (Homo sapiens) (UniProt Q96BR1);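 further: each value is a mean of replicate inhibition readings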
# Sequence (whole entry): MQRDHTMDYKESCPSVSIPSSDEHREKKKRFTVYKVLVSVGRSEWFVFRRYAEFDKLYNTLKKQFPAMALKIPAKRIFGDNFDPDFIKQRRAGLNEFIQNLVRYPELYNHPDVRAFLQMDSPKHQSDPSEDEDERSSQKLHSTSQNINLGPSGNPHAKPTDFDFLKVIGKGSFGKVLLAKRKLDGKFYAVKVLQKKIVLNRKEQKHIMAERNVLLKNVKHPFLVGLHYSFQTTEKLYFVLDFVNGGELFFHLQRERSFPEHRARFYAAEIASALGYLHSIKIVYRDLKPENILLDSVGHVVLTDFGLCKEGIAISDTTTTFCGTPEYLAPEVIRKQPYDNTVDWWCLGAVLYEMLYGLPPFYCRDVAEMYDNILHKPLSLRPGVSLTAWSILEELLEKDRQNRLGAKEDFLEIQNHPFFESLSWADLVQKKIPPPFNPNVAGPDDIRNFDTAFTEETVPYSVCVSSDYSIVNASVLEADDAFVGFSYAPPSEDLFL
# Measurement Setup: at 1 µM
Provide the reported inhibition of each item.
Give bare numbers, in %.

Fc1ccc(Nc2nccc(-c3c(-c4ccc(C(F)(F)F)cc4)nn4ncccc34)n2)cc1F ... 1.5
COc1cccc(Nc2nccc(-c3cnn4ncccc34)n2)c1 ... 2.03
CCS(=O)(=O)c1ccc(OC)c(Nc2ncc(-c3cccc(F)c3)o2)c1 ... 3.03
Cc1cc(O)cc(C)c1/C=C/c1cncc(C(N)=O)c1 ... 1.31
COC(=O)Nc1nc2cc(Oc3ccc(NC(=O)Nc4ccccc4)cc3)ccc2[nH]1 ... 5.17

Hey, can you go through the list below and give me inhibition for every item?
1. O=C(O[C@H]1CN[C@H](C#Cc2cc3ncnc(Nc4ccc5c(cnn5Cc5ccccc5)c4)c3s2)C1)N1CCOCC1
2. c1ccc(-c2n[nH]cc2-c2ccnc(-c3ccc(OCCn4ccnc4)cc3)c2)nc1
3. CCn1c(-c2nonc2N)nc2cncc(C(=O)NCCNC)c21
4. Cc1ccc(-c2cc3c(NC(=O)C4CC4)ncnc3o2)cc1

[0.07, 2.01, 66.2, 4.02]

Hey, can you go through the list below and give me inhibition for every item?
1. Cc1cc(O)cc(C)c1/C=C/c1cncc(C(=O)OC(C)(C)C)c1
2. COc1ccc(-c2nn3ncccc3c2-c2ccnc(Nc3ccc(F)c(F)c3)n2)cc1
3. O=C(O[C@H]1CN[C@H](C#Cc2cc3ncnc(Nc4ccc(OCc5cccc(F)c5)c(Cl)c4)c3s2)C1)N1CCOCC1
4. COc1cc(Nc2ncc(-c3ccccc3)o2)cc(OC)c1
5. CNC(=O)c1cncc(/C=C/c2ccccc2C)c1
6. CS(=O)(=O)CCNCc1ccc(-c2ccc3ncnc(Nc4ccc(OCc5cccc(C(F)(F)F)c5)cc4)c3c2)o1

1: 0.63; 2: 6.1; 3: 6.57; 4: 3; 5: 4.02; 6: 2.45

Hey, can you go through the list below and give me inhibition for every item?
1. COc1ccc(Nc2ncc(-c3ccccc3)o2)cc1OC
2. Cc1nnc(-c2cccc(-c3ccc(C(=O)NCC4CC4)cc3)c2)o1

1: -1.61; 2: 7.89
